I'd appreciate it if you could supply GI50 values for the items below.
# Test system: A549
# assay overview: NCI tumour cell line growth inhibition, 48 h
Activity calls are given as the source filed them. Cut-off read from the data, not from the text of the source: active = GI50 up to about 1.1 µM and inactive = higher.

Any idea what its GI50 is? The compound is C=CC1(CBr)CCC(C(C)(C)Br)O1 (stereo unspecified) 17.3 µM (inactive)

And what about the compound CCOC(=O)C1S/C(=N\c2ccc(OC)c(OC)c2)N=C1C (stereo unspecified) ? 34.8 µM (inactive)

And what about the compound C[C@@H]1C[C@H]2OC(=O)[C@@]3(C)CCC[C@@](C)([C@@H]23)[C@@]1(O)CCc1ccoc1 ? > 100 µM (inactive)

And what about the compound COc1ccc2c(c1)C=C(C(C)(C)C)NS2(=O)=O ? > 100 µM (inactive)

And what about the compound CCN1CSC(=S)N(CC)C1 ? > 100 µM (inactive)

And what about the compound CCc1c(CNC2=NCCN2)c(CC)c(CNC2=NCCN2)c(CC)c1CNC1=NCCN1 ? > 100 µM (inactive)

----------
# Test system: A549
# assay overview: NCI tumour cell line growth inhibition, 48 h
Activity calls are given as the source filed them. Cut-off read from the data, not from the text of the source: active = GI50 up to about 1.1 µM and inactive = higher.
Output constraint: value belongs to active, inactive

Hi team, can someone confirm the assay call for Cc1ccc(/N=N/c2c(C)c(C#N)c(=S)n(C3OC(CO)C(O)C(O)C3O)c2C)cc1 (centres undefined) ? inactive

And what about the compound O=C1/C=C(/c2ccc(O)cc2)[C@@H](OC2OC(CO)C(O)C(O)C2O)Cc2ccc(O)cc2O1.O=C1/C=C(/c2ccc(O)cc2)[C@H](O)Cc2ccc(O[C@@H]3OC(CO)C(O)C(O)C3O)cc2O1 (some centres undefined) ? inactive

And what about the compound CN1C(=O)C2C(=O)N(Cc3ccccc3)CC(=O)N2c2cccnc21 (centres undefined) ? inactive

And what about the compound CCOP1(=O)CC(C)=C(Cl)C(O)C1 (centres undefined) ? inactive

And what about the compound COc1ccccc1-c1csc(CCC(N)C(=O)O)n1 (centres undefined) ? inactive

And what about the compound CCOC1=NC(C(F)(F)F)(C(F)(F)F)N=C(N2CCCCC2)O1 ? inactive

And what about the compound COc1ccc2nc3cc(Cl)ccc3c(NCCCNCCCNc3c4ccc(Cl)cc4nc4ccc(OC)cc34)c2c1 ? active

And what about the compound COC(NC(=O)Nc1ccc(C)cc1)(C(F)(F)F)C(F)(F)F ? inactive

And what about the compound CC(=O)Oc1cc2c(cc1OC(C)=O)OCC(c1ccccc1)C2 (centres undefined) ? inactive

And what about the compound CN1CCN(c2ccc3nc(C4=C(O)C(=O)c5c(nc(CO)n5C)C4=O)[nH]c3n2)CC1 ? inactive

And what about the compound O=C1C(=O)N(c2cccc(C(F)(F)F)c2)C(=S)N1c1ccccc1 ? inactive

And what about the compound O=C(O)COc1ccc2c3c1C(=O)CCC3CO2 (centres undefined) ? inactive

And what about the compound O=C(NC(=O)c1cn(CCN(CCO)C(=O)NCCCCCCNC(=O)N(CCO)CCn2cc(C(=O)NC(=O)OCc3ccccc3)c(=O)[nH]c2=O)c(=O)[nH]c1=O)OCc1ccccc1 ? inactive

And what about the compound O=C(/C=C1\N=C(c2ccccc2)N(c2ccc3c(c2)Sc2cc(N4C(=O)/C(=C/C(=O)/C=C/c5ccccc5)N=C4c4ccccc4)ccc2N3)C1=O)/C=C/c1ccccc1 ? inactive

And what about the compound COc1cc(-c2cc(=O)c3c(O)c(CC=C(C)C)c(O)cc3o2)ccc1O ? inactive

And what about the compound COc1c(C)c2c(c(C)c1Cl)Oc1c(C=O)c(O)c(Cl)c(C)c1C(=O)O2 ? inactive

And what about the compound CC(=O)Nc1ccc(-c2nnc(SCC(=O)Nc3ccccc3Cl)o2)cc1 ? inactive

And what about the compound O=C(O)CSc1n[nH]c(=O)[nH]c1=O ? inactive

And what about the compound CCCc1cn2c(/C=N/NC(=N)N)c(-c3cccc([N+](=O)[O-])c3)nc2s1 ? inactive

----------
I'd appreciate it if you could supply GI50 values for the items below.
# System: SF-295
# assay overview: NCI tumour cell line growth inhibition, 48 h
Calls of active or inactive are those of the source. No stated cut-off is given here; in the data, active = GI50 up to about 1.1 µM and inactive = higher.

Any idea what its GI50 is? The compound is Cc1ccc(S(=O)(=O)N2CCC(C(=O)O)(c3ccccc3)CC2)cc1 > 100 µM (inactive)

And what about the compound O=C1OC(OCC#CCOC2OC(=O)C(Cl)=C2Cl)C(Cl)=C1Cl (stereo not drawn) ? 20.7 µM (inactive)

And what about the compound COC(=O)C1=C(OC(=O)/C=C/c2ccccc2)C(C(=O)OC)[C@@]2(O)[C@@H](C(=O)OC)[C@H](C)C[C@@H]1[C@@H]2C(=O)OC (stereo partly drawn) ? 19.9 µM (inactive)

And what about the compound CCCCCCCCCC[C@@H](OC(C)=O)[C@@H]1CC[C@@H]([C@@H]2CC[C@@H]([C@@H](O)CC#C/C=C/CCCCCCC[C@@]3(Sc4ccccc4)C[C@H](C)OC3=O)O2)O1 ? > 10 µM (inactive)

And what about the compound O=C(Cc1ccccc1)NN1C(=O)/C(=C\c2ccccc2)S/C1=N\c1ccccc1 ? > 100 µM (inactive)

And what about the compound CCCn1c(SCC)c2cc3cc4ccccc4cc3cc2c1-c1nc(F)nc(F)n1 ? > 100 µM (inactive)

And what about the compound CC(=O)Nc1cc2cc(NS(=O)(=O)c3ccc(Cl)c(Cl)c3)ccc2oc1=O ? 19.6 µM (inactive)

And what about the compound CCOC(=O)CN1C(=O)c2ccc(NC(=O)C(=O)O)cc2S1(=O)=O ? > 100 µM (inactive)

----------
# Tested on: RXF 393
# assay overview: NCI tumour cell line growth inhibition, 48 h
The source made the active and inactive calls. Cut-off read from the data, not from the text of the source: active = GI50 up to about 1.1 µM and inactive = higher. Square brackets hold non-standard residues; d marks the D form. Peptide text beside a SMILES is read from it. * marks the point of attachment. AllylGly = C=CC[CH](N)C(=O)O; Boc = CC(C)(C)OC(=O)*; OtBu = CC(C)(C)O*
Output constraint: value belongs to active, inactive

Hi team, can someone confirm the assay call for N=C(CSS(=O)(=O)O)NC1CC2CCC1C2 (stereo not given) ? inactive

And what about the compound N#Cc1ccc(/N=C(/NCC(=O)O)Nc2cccc3ccccc23)cc1 ? inactive

And what about the compound CN(C)CCC(=O)N1CCc2c([nH]c3ccccc23)C1c1cccnc1 (stereo not given) ? active

And what about the compound COc1ccc(Nc2nc3cc(C(F)(F)F)ccc3nc2C(=O)O)cc1 ? inactive

And what about the compound Cc1sc2nc3n(c(=O)c2c1C)N=C(c1ccc([N+](=O)[O-])cc1)CS3 ? inactive

And what about the compound COc1cc(/C=C2/Oc3c(OC)cccc3C2=O)ccc1O ? inactive

And what about the compound CCN(CC)C(=O)COc1ccc(Br)cc1Br ? inactive

And what about the compound Cn1c2c(c3ccccc31)CCN(CCCCN1CCc3c(n(C)c4ccccc34)C1=O)C2 ? inactive

And what about the compound O=C1c2c(ccc3c2CCC3)CC12Cc1ccccc1C2 ? inactive

And what about the compound C=CCC(NC(=O)C(CC(=O)OC(C)(C)C)NC(=O)OC(C)(C)C)C(=O)OC (stereo not given) (Boc-Asp(OtBu)-[AllylGly]-OMe; configuration not given here) ? inactive

----------
# System: SF-539
# assay overview: NCI tumour cell line growth inhibition, 48 h
Calls of active or inactive are those of the source. No stated cut-off is given here; in the data, active = GI50 up to about 1.1 µM and inactive = higher.
measured parameter: GI50

Any idea what its GI50 is? The compound is CCCCCCCCCc1cc(=O)c2c(O)cccc2o1 > 100 µM (inactive)

And what about the compound O=S(O)CCCSSc1ccccc1 ? 25.3 µM (inactive)

And what about the compound C[C@H](C(=O)C12CC3CC(CC(C3)C1)C2)[C@H](O)c1ccccc1 ? 33.3 µM (inactive)

And what about the compound Cc1cc(Cc2cc(C)cc(C(C)(C)C)c2O)c(O)c(Cc2cc(C)cc(C(C)(C)C)c2O)c1 ? 2.51 µM (inactive)

And what about the compound C[S+](C)C1(c2ccccc2)C(=O)c2ccccc2C1=O ? 28.7 µM (inactive)

And what about the compound O=C(O)COc1ccc2c3c1C(=O)CCC3CO2 (stereo unspecified) ? > 100 µM (inactive)

And what about the compound Cc1cnc2sn(-c3ccc(Br)cc3)c(=O)c2c1 ? 31.3 µM (inactive)

And what about the compound COc1cc(C(c2cccc3ccccc23)N2C(=O)CCC2C(=O)NCc2ccccc2)cc(OC)c1OC (stereo unspecified) ? > 100 µM (inactive)

And what about the compound CC(=O)NC1CCC(NC(=O)OC(C)(C)C)C(NC(=O)OC(C)(C)C)C1 (stereo unspecified) ? > 100 µM (inactive)

And what about the compound CC(=O)OC/C=C/Cn1ncc(=O)[nH]c1=O ? > 100 µM (inactive)

And what about the compound O=C1C(Cl)=C(NCCO)C(=O)c2c(O)ccc(O)c21 ? 2.52 µM (inactive)
